POTASSIUM by entry:
Organism: Rattus norvegicus
Assay explanation: DrugMatrix - Regimen: Daily Repeat
Format: toxicity, organism-based, Sprague-Dawley
Parameters: regimen Daily Repeat, gender Male, age 6-8 weeks
Details: in vivo, po, 0 mg/kg, 120 h, tissue Plasma, route oral GAVAGE, dose level Control, time 5 day, vehicle 100 % WATER
Answer with the number, then the unit.

>>> recorded_result("C[N+](C)(C)CCOC(N)=O.[Cl-] [CARBACHOL]")
"6.07 MEQ/L"
>>> recorded_result("Cc1cc(C(C)(C)C)c(O)c(C)c1CC1=NCCN1 [OXYMETAZOLINE]")
"6.39 MEQ/L"
>>> recorded_result("NN [HYDRAZINE]")
"6.29 MEQ/L"

# input for lookup
Prompt line: Any idea what its POTASSIUM is? The molecule is C1CCN2C[C@@H]3C[C@@H](CN4CCCC[C@@H]34)[C@H]2C1 [SPARTEINE]
Response line: 6.11 MEQ/L

###

Species: Rattus norvegicus
Assay explanation: DrugMatrix - Regimen: Daily Repeat
Format: toxicity, organism-based, Sprague-Dawley
Design: regimen Daily Repeat, gender Male, age 6-8 weeks
Details: in vivo, po, 0 mg/kg, 120 h, tissue Plasma, route oral GAVAGE, dose level Control, time 5 day, vehicle .5 % CMC
Endpoint label: ASPARTATE AMINOTRANSFERASE (u/L)
Just the number in u/L, nothing appended.

>>> recorded_result("CCN1C[C@]2(COC)[C@H](O)C[C@H](OC)[C@@]34[C@@H]5C[C@@]6(O)[C@H](OC(=O)c7ccccc7)[C@@H]5[C@@](OC(C)=O)([C@@H]([C@H](OC)[C@H]23)[C@@H]14)[C@@H](O)[C@@H]6OC")
65.83

Prompt line: Any idea what its ASPARTATE AMINOTRANSFERASE is? The compound is COc1ccc(Cl)cc1C(=O)NCCc1ccc(S(=O)(=O)NC(=O)NC2CCCCC2)cc1 [GLYBURIDE]
Response line: 65

Prompt line: What would you report for NC(=O)NC(=O)Cc1ccccc1 [PHENACEMIDE] ?
Response line: 67.67

Prompt line: What would you report for "Nc1ccc(C(=O)O)c(O)c1" ?
Response line: 65

Prompt line: What would you report for CC(C)NCC(O)COc1ccc(CC(N)=O)cc1 (stereo not drawn) ?
Response line: 60.83

Prompt line: What would you report for COc1cc(/C=C/C(=O)O)ccc1O [FERULATE] ?
Response line: 83.67

Prompt line: What would you report for Cl.NC[C@H]1CC[C@H](C(=O)Oc2ccc(CCC(=O)O)cc2)CC1 [CETRAXATE HYDROCHLORIDE] ?
Response line: 83.67

Prompt line: What would you report for CCN1CCCC1CNC(=O)c1cc(S(N)(=O)=O)ccc1OC (stereo not drawn) [SULPIRIDE] ?
Response line: 81.83

###

Species on record: Rattus norvegicus
Assay explanation: DrugMatrix - Regimen: Daily Repeat
Type: toxicity, organism-based, Sprague-Dawley
Design: regimen Daily Repeat, gender Male, age 6-8 weeks
Details: in vivo, po, 0 mg/kg, 120 h, tissue Plasma, route oral GAVAGE, dose level Control, time 5 day, vehicle .5 % CMC
ALKALINE PHOSPHATASE by entry:
Just the number in u/L, nothing appended.

Solved entries (count: 4):
>>> recorded_result("CC(=O)Nc1ccc2c(c1)Cc1ccccc1-2 [2-ACETYLAMINOFLUORENE]")
352.33
>>> recorded_result("CCN1CCCC1CNC(=O)c1cc(S(N)(=O)=O)ccc1OC (stereo not drawn) [SULPIRIDE]")
373.17
>>> recorded_result("COc1cc(/C=C/C(=O)O)ccc1O [FERULATE]")
365.67
>>> recorded_result("NC(=O)CN1CCCC1=O")
337

Prompt line: Any idea what its ALKALINE PHOSPHATASE is? The compound is COc1cc(NC(C)CCCN)c2ncccc2c1 (stereo not drawn) [PRIMAQUINE]
Response line: 316.67

Prompt line: What would you report for NCC(CC(=O)O)c1ccc(Cl)cc1 (stereo not drawn) [BACLOFEN] ?
Response line: 352.33

Prompt line: What would you report for Nc1ccc(C(=O)O)c(O)c1 [AMINOSALICYLIC ACID] ?
Response line: 369.5

Prompt line: What would you report for CN(C)CCOC(c1ccccc1)c1ccccc1.Cn1c(=O)c2[nH]c(Cl)nc2n(C)c1=O [DIMENHYDRINATE] ?
Response line: 382.5

Prompt line: What would you report for CN(C)CCC=C1c2ccccc2COc2ccccc21 [DOXEPIN] ?
Response line: 377.5

Prompt line: What would you report for CCOc1cc(N)c(Cl)cc1C(=O)NCC1CN(Cc2ccc(F)cc2)CCO1 (stereo not drawn) [MOSAPRIDE] ?
Response line: 352.33

Prompt line: What would you report for CC(C)Cc1ccc([C@H](C)C(=O)O)cc1 [DEXIBUPROFEN] ?
Response line: 419

Prompt line: What would you report for O=C1c2ccccc2C(=O)C1c1ccccc1 [PHENINDIONE] ?
Response line: 391

Prompt line: What would you report for CCN1C[C@]2(COC)[C@H](O)C[C@H](OC)[C@@]34[C@@H]5C[C@@]6(O)[C@H](OC(=O)c7ccccc7)[C@@H]5[C@@](OC(C)=O)([C@@H]([C@H](OC)[C@H]23)[C@@H]14)[C@@H](O)[C@@H]6OC [ACONITINE] ?
Response line: 391

###

Organism: Rattus norvegicus
Assay explanation: DrugMatrix - Regimen: Daily Repeat
Format: toxicity, organism-based, Sprague-Dawley
Parameters: regimen Daily Repeat, gender Male, age 6-8 weeks
Details: in vivo, po, 0 mg/kg, 120 h, tissue Blood, route oral GAVAGE, dose level Control, time 5 day, vehicle .5 % CMC
Endpoint label: MEAN CORPUSCULAR HEMOGLOBIN (pg)
Just the number in pg, nothing appended.

>>> recorded_result("Nc1ccc(C(=O)O)c(O)c1 [AMINOSALICYLIC ACID]")
24.25
>>> recorded_result("CCN1CCN(c2cc3c(cc2F)c(=O)c(C(=O)O)cn3C2CC2)CC1 [ENROFLOXACIN]")
21.96
>>> recorded_result("CC(C)(C#N)c1cc(Cn2cncn2)cc(C(C)(C)C#N)c1 [ANASTROZOLE]")
24.97
>>> recorded_result("O=C(O)CCc1nc(-c2ccccc2)c(-c2ccccc2)o1 [OXAPROZIN]")
25.02
>>> recorded_result("COc1cc(NC(C)CCCN)c2ncccc2c1 (centres undefined) [PRIMAQUINE]")
23.57

# input for lookup
Prompt line: Any idea what its MEAN CORPUSCULAR HEMOGLOBIN is? The molecule is CCN1C[C@]2(COC)[C@H](O)C[C@H](OC)[C@@]34[C@@H]5C[C@@]6(O)[C@H](OC(=O)c7ccccc7)[C@@H]5[C@@](OC(C)=O)([C@@H]([C@H](OC)[C@H]23)[C@@H]14)[C@@H](O)[C@@H]6OC [ACONITINE]
Response line: 19.82

###

Organism: Rattus norvegicus
Assay explanation: DrugMatrix - Regimen: Daily Repeat
Assay type: toxicity, organism-based, Sprague-Dawley
Design: regimen Daily Repeat, gender Male, age 6-8 weeks
Details: in vivo, po, 0 mg/kg, 72 h, tissue Blood, route oral GAVAGE, dose level Control, time 3 day, vehicle 100 % WATER
MONOCYTE by entry:
Just the number in %, nothing appended.

>>> recorded_result("NN [HYDRAZINE]")
1.17
>>> recorded_result("Cc1cn([C@H]2C=C[C@@H](CO)O2)c(=O)[nH]c1=O")
0.67
>>> recorded_result("CCN(CC)C(=S)SSC(=S)N(CC)CC")
1.33
>>> recorded_result("CCC1(c2ccccc2)C(=O)NC(=O)NC1=O")
0.5
>>> recorded_result("Cc1cc(C(C)(C)C)c(O)c(C)c1CC1=NCCN1")
0.5

Prompt line: Any idea what its MONOCYTE is? The compound is "C[N+](C)(C)CCOC(N)=O.[Cl-]"
Response line: 0.67

Prompt line: What would you report for "CN1C(=O)OC(C)(C)C1=O" ?
Response line: 2.67

Prompt line: What would you report for "CC(Cl)(Cl)Cl" ?
Response line: 1.17

Prompt line: What would you report for "C1CCN2C[C@@H]3C[C@@H](CN4CCCC[C@@H]34)[C@H]2C1" ?
Response line: 1.17

###

POTASSIUM by entry:
Organism: Rattus norvegicus
Assay explanation: DrugMatrix - Regimen: Daily Repeat
Type: toxicity, organism-based, Sprague-Dawley
Design: regimen Daily Repeat, gender Male, age 6-8 weeks
Details: in vivo, po, 0 mg/kg, 120 h, tissue Plasma, route oral GAVAGE, dose level Control, time 5 day, vehicle .5 % CMC
Just the number in MEQ/L, nothing appended.

Solved entries (count: 10):
>>> recorded_result("NCC(CC(=O)O)c1ccc(Cl)cc1 (stereo unspecified)")
6.57
>>> recorded_result("NC(=O)NC(=O)Cc1ccccc1 [PHENACEMIDE]")
6.09
>>> recorded_result("COc1cc(/C=C/C(=O)O)ccc1O [FERULATE]")
6.49
>>> recorded_result("O=C(O)CCc1nc(-c2ccccc2)c(-c2ccccc2)o1")
7.08
>>> recorded_result("CC(C)Cc1ccc([C@H](C)C(=O)O)cc1")
6.47
>>> recorded_result("CN(C)CCC=C1c2ccccc2COc2ccccc21 [DOXEPIN]")
6.68
>>> recorded_result("CCN1C[C@]2(COC)[C@H](O)C[C@H](OC)[C@@]34[C@@H]5C[C@@]6(O)[C@H](OC(=O)c7ccccc7)[C@@H]5[C@@](OC(C)=O)([C@@H]([C@H](OC)[C@H]23)[C@@H]14)[C@@H](O)[C@@H]6OC")
7.2
>>> recorded_result("CCN1CCN(c2cc3c(cc2F)c(=O)c(C(=O)O)cn3C2CC2)CC1")
6.7
>>> recorded_result("CN(C)CCOC(c1ccccc1)c1ccccc1.Cn1c(=O)c2[nH]c(Cl)nc2n(C)c1=O [DIMENHYDRINATE]")
6.85
>>> recorded_result("O=C1c2ccccc2C(=O)C1c1ccccc1")
7.2

Prompt line: Any idea what its POTASSIUM is? The molecule is COc1cc(NC(C)CCCN)c2ncccc2c1 (stereo unspecified)
Response line: 6.18
